Molecular target: human M2 receptor (Homo sapiens, UniProt P08172)
Sequence (P08172 1-466): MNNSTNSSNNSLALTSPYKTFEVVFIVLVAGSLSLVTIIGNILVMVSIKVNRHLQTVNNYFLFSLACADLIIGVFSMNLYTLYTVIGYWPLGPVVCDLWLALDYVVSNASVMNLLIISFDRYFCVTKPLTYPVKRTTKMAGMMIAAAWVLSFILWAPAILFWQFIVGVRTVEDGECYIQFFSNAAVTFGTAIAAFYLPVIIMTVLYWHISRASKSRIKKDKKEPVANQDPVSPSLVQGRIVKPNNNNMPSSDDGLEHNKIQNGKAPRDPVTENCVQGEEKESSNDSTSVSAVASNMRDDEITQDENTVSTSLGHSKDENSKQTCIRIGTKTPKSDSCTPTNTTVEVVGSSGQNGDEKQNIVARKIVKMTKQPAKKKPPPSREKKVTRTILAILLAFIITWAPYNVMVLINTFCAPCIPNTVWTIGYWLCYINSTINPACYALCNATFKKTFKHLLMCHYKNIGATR
Test: Functional M2-GIRK1/4 activation test: allosteric potency (EC50) and efficiency at EC20 acetylcholine
Conditions: CHO-DUKX-M2-GIRK cells; voltage-sensitive dye; acetylcholine at EC20; in some cases mean of two or more determinations
quantityName: log10 EC50 (log10 of the value in nM)

{"molecule": "Cc1cc(F)cc(C)c1-n1cc(C(=O)N[C@H](C2CC2)C(F)(F)F)c(=O)c2cc(F)c(N3C[C@@H](O)CC3=O)nc21 [Example 177]", "reportedValue": 2.72}
{"molecule": "O=C(N[C@@H](C1CC1)C(F)(F)F)c1cn(-c2c(F)cc(F)cc2F)c2nc(N3CC(O)C3)c(F)cc2c1=O [Example 54]", "reportedValue": 1.40}
{"molecule": "CC(NC(=O)c1cn(-c2c(F)cc(F)cc2F)c2nc(N3CC[C@H](O)C3)c(F)cc2c1=O)C(F)(F)C(F)(F)F (single isomer, unassigned) [Example 113]", "reportedValue": 0.30}
{"molecule": "O=C(Nc1c(Cl)cccc1Cl)c1cn(-c2c(F)cc(F)cc2F)c2nc(N3C[C@@H](O)[C@H](O)C3)c(F)cc2c1=O [Example 130]", "reportedValue": 0.36}
{"molecule": "CC[C@H](NC(=O)c1cn(-c2c(F)cc(F)cc2F)c2nc(N3C[C@@H](O)[C@H](O)C3)c(Cl)cc2c1=O)C(F)(F)F [Example 38]", "reportedValue": 1.00}
{"molecule": "CC(C)(CC(F)(F)F)NC(=O)c1cn(-c2c(F)cc(F)cc2F)c2nc(N3C[C@@H](O)[C@H](O)C3)c(F)cc2c1=O [Example 13]", "reportedValue": 0.79}
